Test system: Escherichia coli TOP10
experiment: shrunken log2 fold change of peptide-encoding DNA abundance (4.5 h post-induction vs induction); higher = less antimicrobial activity (less host growth inhibition)
measurement setup: time post-induction: 4.5 h; library: site-saturation at positions 5, 18, 19, 20
property: shrunken log2 fold change

Below are worked cases with known answers.
INSERT INTO assay_data (residue_codes, val) VALUES
  ('RRIRYRPPRLPRPRPRPAWPPRP', 0.363),
  ('RRIRNRPPRLPRPRPRPYVQPRP', -0.0341),
  ('RRIRHRPPRLPRPRPRPQQSPRP', -0.0132),
  ('RRIRWRPPRLPRPRPRPHNWPRP', 0.0898),
  ('RRIRMRPPRLPRPRPRPGKQPRP', -0.00189);

RRIRRRPPRLPRPRPRPLMNPRP has a reported shrunken log2 fold change of 0.312

RRIRNRPPRLPRPRPRPCIGPRP has a reported shrunken log2 fold change of 0.00845

RRIRMRPPRLPRPRPRPDWNPRP has a reported shrunken log2 fold change of -0.0431

RRIRGRPPRLPRPRPRPCECPRP has a reported shrunken log2 fold change of -0.0257

RRIRNRPPRLPRPRPRPLKYPRP has a reported shrunken log2 fold change of -0.0547

RRIRQRPPRLPRPRPRPTTAPRP has a reported shrunken log2 fold change of -0.00139

RRIRQRPPRLPRPRPRPWCDPRP has a reported shrunken log2 fold change of -0.191

RRIRGRPPRLPRPRPRPIKEPRP has a reported shrunken log2 fold change of -0.104

RRIRCRPPRLPRPRPRPCEGPRP has a reported shrunken log2 fold change of 0.0324

RRIRDRPPRLPRPRPRPSQLPRP has a reported shrunken log2 fold change of -0.633

###

Tested on: Escherichia coli TOP10
experiment: shrunken log2 fold change of peptide-encoding DNA abundance (4.5 h post-induction vs induction); higher = less antimicrobial activity (less host growth inhibition)
measurement setup: time post-induction: 4.5 h; library: site-saturation at positions 5, 18, 19, 20
sequences and their reported shrunken log2 fold change
Please give the numeric answer without any surrounding text.

Below are worked cases with known answers.
INSERT INTO measurements (residue_codes, property, val) VALUES
  ('RRIRVRPPRLPRPRPRPQTEPRP', 'shrunken log2 fold change', -0.134),
  ('RRIRDRPPRLPRPRPRPCDSPRP', 'shrunken log2 fold change', -0.0465),
  ('RRIRYRPPRLPRPRPRPARQPRP', 'shrunken log2 fold change', 0.279),
  ('RRIRHRPPRLPRPRPRPKFKPRP', 'shrunken log2 fold change', 0.0646),
  ('RRIRGRPPRLPRPRPRPWMNPRP', 'shrunken log2 fold change', 0.106),
  ('RRIRVRPPRLPRPRPRPMHEPRP', 'shrunken log2 fold change', -0.044);

RRIRWRPPRLPRPRPRPACEPRP has a reported shrunken log2 fold change of 0.11

RRIRDRPPRLPRPRPRPCMRPRP has a reported shrunken log2 fold change of 0.311

RRIRPRPPRLPRPRPRPYAFPRP has a reported shrunken log2 fold change of -0.264

###

sequences and their reported shrunken log2 fold change
Tested on: Escherichia coli TOP10
experiment: shrunken log2 fold change of peptide-encoding DNA abundance (4.5 h post-induction vs induction); higher = less antimicrobial activity (less host growth inhibition)
measurement setup: time post-induction: 4.5 h; library: site-saturation at positions 5, 18, 19, 20
Please give the numeric answer without any surrounding text.

INSERT INTO assay_data (residue_codes, system, property, val) VALUES
  ('RRIRRRPPRLPRPRPRPHWYPRP', 'Escherichia coli TOP10', 'shrunken log2 fold change', -0.404),
  ('RRIRGRPPRLPRPRPRPVALPRP', 'Escherichia coli TOP10', 'shrunken log2 fold change', 0.639),
  ('RRIRPRPPRLPRPRPRPHVRPRP', 'Escherichia coli TOP10', 'shrunken log2 fold change', 0.036),
  ('RRIRYRPPRLPRPRPRPQLSPRP', 'Escherichia coli TOP10', 'shrunken log2 fold change', -0.0974),
  ('RRIRIRPPRLPRPRPRPDLPPRP', 'Escherichia coli TOP10', 'shrunken log2 fold change', -0.334);

Readout shrunken log2 fold change for RRIRHRPPRLPRPRPRPEFWPRP , test system Escherichia coli TOP10, was 0.42

Readout shrunken log2 fold change for RRIRPRPPRLPRPRPRPKVEPRP , test system Escherichia coli TOP10, was 0.00158

Readout shrunken log2 fold change for RRIRYRPPRLPRPRPRPSYAPRP , test system Escherichia coli TOP10, was -0.149

###

System: Escherichia coli TOP10
experiment: shrunken log2 fold change of peptide-encoding DNA abundance (4.5 h post-induction vs induction); higher = less antimicrobial activity (less host growth inhibition)
measurement setup: time post-induction: 4.5 h; library: site-saturation at positions 5, 18, 19, 20
Entry class follows shrunken log2 fold change: low bracket (below -0.2), middle bracket (-0.2 to below 0.2), high bracket (0.2 or more)

Past entries and their recorded results:
INSERT INTO assay_data (residue_codes, class_assignment) VALUES
  ('RRIRIRPPRLPRPRPRPKCYPRP', 'middle bracket'),
  ('RRIRDRPPRLPRPRPRPMNHPRP', 'low bracket'),
  ('RRIRVRPPRLPRPRPRPLKDPRP', 'low bracket'),
  ('RRIRHRPPRLPRPRPRPMQQPRP', 'middle bracket'),
  ('RRIRWRPPRLPRPRPRPSQTPRP', 'high bracket'),
  ('RRIRDRPPRLPRPRPRPDWGPRP', 'middle bracket'),
  ('RRIRCRPPRLPRPRPRPTDKPRP', 'low bracket'),
  ('RRIRHRPPRLPRPRPRPREGPRP', 'high bracket');

Challenge: Please report the category associated with RRIRYRPPRLPRPRPRPMEEPRP , nothing else.
Response given: middle bracket

Challenge: Please report the category associated with RRIRIRPPRLPRPRPRPNHQPRP , nothing else.
Response given: middle bracket

Challenge: Please report the category associated with RRIRTRPPRLPRPRPRPTRDPRP , nothing else.
Response given: middle bracket

Challenge: Please report the category associated with RRIRRRPPRLPRPRPRPATHPRP , nothing else.
Response given: high bracket

Challenge: Please report the category associated with RRIRGRPPRLPRPRPRPMKRPRP , nothing else.
Response given: high bracket

Challenge: Please report the category associated with RRIRKRPPRLPRPRPRPLELPRP , nothing else.
Response given: middle bracket

Challenge: Please report the category associated with RRIRDRPPRLPRPRPRPVTAPRP , nothing else.
Response given: middle bracket

###

System: Escherichia coli TOP10
experiment: shrunken log2 fold change of peptide-encoding DNA abundance (4.5 h post-induction vs induction); higher = less antimicrobial activity (less host growth inhibition)
measurement setup: time post-induction: 4.5 h; library: site-saturation at positions 5, 18, 19, 20
property: shrunken log2 fold change
Please give the numeric answer without any surrounding text.

Below are worked cases with known answers.
INSERT INTO assay_data (residue_codes, system, val) VALUES
  ('RRIRRRPPRLPRPRPRPPQCPRP', 'Escherichia coli TOP10', 1.55),
  ('RRIRVRPPRLPRPRPRPESNPRP', 'Escherichia coli TOP10', 0.0327),
  ('RRIRFRPPRLPRPRPRPTLRPRP', 'Escherichia coli TOP10', 0.0831),
  ('RRIRCRPPRLPRPRPRPQYNPRP', 'Escherichia coli TOP10', -1.36),
  ('RRIRIRPPRLPRPRPRPSEYPRP', 'Escherichia coli TOP10', -0.0435),
  ('RRIRVRPPRLPRPRPRPASGPRP', 'Escherichia coli TOP10', -0.188),
  ('RRIRGRPPRLPRPRPRPWAEPRP', 'Escherichia coli TOP10', 2.19),
  ('RRIRPRPPRLPRPRPRPGIMPRP', 'Escherichia coli TOP10', -0.2);

RRIRTRPPRLPRPRPRPSKFPRP has a reported shrunken log2 fold change of -0.624

RRIRQRPPRLPRPRPRPSTKPRP has a reported shrunken log2 fold change of 0.0644

RRIRCRPPRLPRPRPRPITIPRP has a reported shrunken log2 fold change of -0.261

RRIRKRPPRLPRPRPRPPMGPRP has a reported shrunken log2 fold change of 0.185

RRIRPRPPRLPRPRPRPTQQPRP has a reported shrunken log2 fold change of 0.827

RRIRTRPPRLPRPRPRPCTLPRP has a reported shrunken log2 fold change of -0.314

RRIRNRPPRLPRPRPRPLFNPRP has a reported shrunken log2 fold change of -0.777

###

sequences and their reported shrunken log2 fold change
Tested on: Escherichia coli TOP10;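 also: peptides expressed intracellularly from a pBAD plasmid library in pooled LB shake-flask culture, induced with 0.3% L-arabinose, DNA abundance read by NGS, three biological replicates, DESeq2 with apeglm shrinkage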
experiment: shrunken log2 fold change of peptide-encoding DNA abundance (4.5 h post-induction vs induction); higher = less antimicrobial activity (less host growth inhibition)
measurement setup: time post-induction: 4.5 h; library: site-saturation at positions 5, 18, 19, 20
Please give the numeric answer without any surrounding text.

INSERT INTO assay_data (residue_codes, val) VALUES
  ('RRIRKRPPRLPRPRPRPHKKPRP', -0.127),
  ('RRIRVRPPRLPRPRPRPMSQPRP', -0.296),
  ('RRIRHRPPRLPRPRPRPLMEPRP', -0.348),
  ('RRIRHRPPRLPRPRPRPHLGPRP', 0.0478),
  ('RRIRRRPPRLPRPRPRPGSSPRP', 0.103),
  ('RRIRGRPPRLPRPRPRPMWSPRP', 0.89);

RRIRYRPPRLPRPRPRPDKVPRP has a reported shrunken log2 fold change of -0.102

RRIRSRPPRLPRPRPRPNCFPRP has a reported shrunken log2 fold change of 0.0876
